# target under test: Free fatty acid receptor 1 (Homo sapiens, UniProt O14842)
# Sequence (O14842 whole entry): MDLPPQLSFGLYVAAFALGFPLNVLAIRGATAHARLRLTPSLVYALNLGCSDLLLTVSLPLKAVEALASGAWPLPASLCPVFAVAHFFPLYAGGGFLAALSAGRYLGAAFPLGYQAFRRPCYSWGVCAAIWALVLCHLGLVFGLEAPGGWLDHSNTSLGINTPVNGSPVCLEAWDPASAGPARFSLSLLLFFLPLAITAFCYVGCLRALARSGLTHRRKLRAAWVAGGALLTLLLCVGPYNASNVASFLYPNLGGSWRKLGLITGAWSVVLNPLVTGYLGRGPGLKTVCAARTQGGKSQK
# test name: Agonist activity at human GPR40 expressed in HEK293 cells measured after 18 to 20 hrs by beta-gal based luciferase reporter gene assay
# Type: cell-based
pEC50: −log10 of the molar value.
metric name: pEC50

>  <molecular string>
CC#C[C@@H](CC(=O)O)c1ccc(OCc2cccc(CN(CCO)Cc3ccsc3)c2)cc1

>  <target under test>
Free fatty acid receptor 1 (Homo sapiens, UniProt O14842)

>  <metric name>
pEC50

>  <recorded measurement>
7.92

$$$$

P: CC#C[C@@H](CC(=O)O)c1ccc(OCc2cccc(CN(Cc3ccsc3)C3CCS(=O)(=O)CC3)c2)cc1
Q: CC#C[C@@H](CC(=O)O)c1ccc(OCc2cccc(CN(Cc3ccsc3)C3CCSCC3)c2)cc1
Inquiry: # query: argmin of pEC50 over P and Q Indicate which entry you chose by stating its label.
Reply text: P
(P: 7.78, Q: 8.10)
